test description: HILIC, Waters ACQUITY UPLC BEH HILIC, 150 × 2.1 mm, 1.7 µm, 40 °C, 0.6 mL/min, estimated dead time 0.55 min; A: water + 0.1% formic acid + 20 mM ammonium formate, pH 3.5; B: acetonitrile + 0.1% formic acid, pH 3; gradient (min/%B) 0/95 0.1/95 4.6/80 5.5/50 7.0/50 7.1/95 7.2/95 7.3/95 7.4/95 7.5/95 7.6/95 7.7/95 7.8/95 12.50/95 12.65/95
test conditions: stereoisomer not certain
parameter measured: LC retention time (min)

Known LC retention time results, listed for orientation:
I'd like to know its LC retention time. The compound in question is C=CC1CN2CCC1CC2C(O)c1ccnc2ccc(OC)cc12 (stereo not given) [Quinine]
3.03

I'd like to know its LC retention time. The compound in question is C[N+](C)(C)C(Cc1c[nH]c2ccccc12)C(=O)[O-] (stereo not given) [Tryptophan betaine]
3.91

I'd like to know its LC retention time. The compound in question is NCCc1ccccc1 [Phenylethylamine]
2.91

I'd like to know its LC retention time. The compound in question is CCCCCCCCCCCC(=O)OC(CC(=O)[O-])C[N+](C)(C)C (stereo not given) [Lauroylcarnitine CAR(12:0)]
3.97

I'd like to know its LC retention time. The compound in question is CCCCCCCC(=O)OC(CC(=O)[O-])C[N+](C)(C)C (stereo not given) [Octanoylcarnitine CAR(C8:0)]
4.13

I'd like to know its LC retention time. The compound in question is NC(N)=NCCCC(=O)O [4-Guanidinobutanoic acid]
3.84

1 = CN1CC(=O)NC1=N [Creatinine]
2 = CCC(=O)OC(CC(=O)[O-])C[N+](C)(C)C (stereo not given) [Propionylcarnitine CAR(3:0)]
For the pair 1 and 2 , which entry has the numerically smaller recorded LC retention time? State your choice using its label.
1

I = CC(C)(CO)C(O)C(=O)NCCC(=O)O (stereo not given) [Pantothenic acid]
II = Nc1nc2ncc(C(O)C(O)CO)nc2c(=O)[nH]1 (stereo not given) [Neopterin]
Which entry has a larger number for LC retention time, I or II ? State your choice using its label.
II
